Recorded IC50 by entry
System: HCT-116
Test: Cytotoxicity against human HCT116 cells after 48 hrs by MTT assay
Format: functional, cell-based
Settings: HCT-116, 48 h
The reply should be a number in µM, with the unit left off.

Known IC50 results, listed for orientation:
- molecular_string: "CC(=O)OC[C@H]1[C@@H]2C3=C(C(=O)[C@@H]2O[C@@]12OC[C@H](C)[C@@H](O)[C@@H]2O)[C@@H]1CC=C2C[C@@H](O)C[C@@H](O[C@@H]4OC[C@H](O)[C@H](O)[C@H]4O[C@@H]4O[C@@H](C)[C@H](OC(C)=O)[C@@H](O[C@@H]5OC[C@](O)(CO)[C@H]5O)[C@H]4O)[C@]2(C)[C@H]1CC3"
  recorded_measurement: 4.92
- molecular_string: "CC(=O)O[C@H]1[C@@H](C)CO[C@@]2(O[C@H]3C(=O)C4=C(CC[C@H]5[C@H]4CC=C4C[C@@H](O)C[C@@H](O[C@@H]6OC[C@H](O)[C@H](O[C@@H]7OC[C@@H](O)[C@H](O)[C@H]7O)[C@H]6O[C@@H]6O[C@@H](C)[C@H](O)[C@@H](O[C@@H]7OC[C@](O)(CO)[C@H]7O)[C@H]6O)[C@@]45C)[C@H]3[C@@H]2CO)[C@H]1O"
  recorded_measurement: 5.84
- molecular_string: "CC[C@@]1(O)C(=O)OCc2c1cc1n(c2=O)Cc2cc3ccccc3nc2-1"
  recorded_measurement: 0.0115

Any idea what IC50 was measured for `C/C(C(=O)CC[C@@H](C)CO[C@@H]1O[C@H](CO)[C@@H](O)[C@H](O)[C@H]1O)=C1/C(=O)C[C@H]2[C@@H]3CC=C4C[C@@H](O[C@@H]5O[C@H](CO)[C@@H](O[C@@H]6O[C@@H](C)[C@H](O)[C@@H](O)[C@H]6O)[C@H](O)[C@H]5O)CC[C@]4(C)[C@H]3CC[C@]12C` ?
17.3

FYI, the data here is from ChEMBL document CHEMBL4024731.
